The reader will find reported EC50 values listed item by item below.
target: hGcgR (Homo sapiens, UniProt P47871); test: Functional cAMP activation in the presence of 0.1% casein (no HSA); assay type: cell-based; conditions: in the presence of 0.1% casein (no HSA); geometric mean; read-out: Relative cAMP EC50, hGcgR;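 also: intracellular cAMP rise after 30 min at 37 °C, read by HTRF against a cAMP standard curve, scaled from buffer only (0%) to maximal control ligand response (100%)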
Sequence (P47871 26-477): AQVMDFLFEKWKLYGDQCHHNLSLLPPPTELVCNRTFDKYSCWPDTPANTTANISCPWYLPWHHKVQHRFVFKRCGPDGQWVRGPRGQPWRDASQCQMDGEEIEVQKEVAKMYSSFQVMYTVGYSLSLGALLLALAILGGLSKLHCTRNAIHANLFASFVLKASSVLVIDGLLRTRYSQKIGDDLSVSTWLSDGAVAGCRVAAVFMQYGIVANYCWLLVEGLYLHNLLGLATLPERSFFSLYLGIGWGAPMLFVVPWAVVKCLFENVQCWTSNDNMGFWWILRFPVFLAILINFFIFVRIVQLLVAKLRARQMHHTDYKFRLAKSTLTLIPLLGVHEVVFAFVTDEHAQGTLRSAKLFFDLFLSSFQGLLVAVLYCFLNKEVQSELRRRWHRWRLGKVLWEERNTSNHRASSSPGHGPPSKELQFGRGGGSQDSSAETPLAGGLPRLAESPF
Starred links: 1 amine or outer side, 2 acyl side, 3 side chain; linkers in the order of their positions; H or OH if unused. Non-standard residues stand in square brackets, D forms with d. Groups on a side chain read outwards from the residue. *: point of attachment. C20 diacid = O=C(O)CCCCCCCCCCCCCCCCCCC(=O)*; C18 diacid = O=C(O)CCCCCCCCCCCCCCCCC(=O)*; γGlu = O=C(O)[C@H](CCC(=O)[*:2])N[*:1]; αMe4Pal = C[C@](N)(Cc1ccncc1)C(=O)O; αMeY = C[C@](N)(Cc1ccc(O)cc1)C(=O)O; 4Pal = N[C@@H](Cc1ccncc1)C(=O)O; αMeL = CC(C)C[C@](C)(N)C(=O)O; αMeS = C[C@](N)(CO)C(=O)O; Orn = NCCC[C@H](N)C(=O)O; AEEA = NCCOCCOCC(=O)O; Aib = CC(C)(N)C(=O)O
Answer with a number only, understood to be in nM.

Check out these entries, answers already filled in.
substance	EC50 [nM]
H-Y[Aib]QGTFTSD[4Pal][αMeS]Q[αMeL]LD[Orn]K([dE-γGlu-C18 diacid])AQ[αMe4Pal]QFIQ[αMeY]LIE[Aib]GPSSGEPPPSGGGE-NH2 [Example 1183]	1.38
H-Y[Aib]QGTFTSDFS[Orn][αMeL]LDKK([AEEA-γGlu-C18 diacid])AQ[Aib]AFIEYLLAGGPSSGEPPPSGS-NH2 [Example 94]	8.16

// H-Y[Aib]QGTFTSDYSI[αMeL]LDKQAAK([AEEA-AEEA-γGlu-C20 diacid])QFVEWLIA[Aib]GPSSGEPPPGTG-NH2 [Example 336] : EC50 value = 7.05

// data source = patent US20240270821A1
